Origin of the recorded values: patent US20260174750A1

List of IC50 tested on human DGAT2 (Homo sapiens, UniProt Q96PD7).
Answer with a number only, understood to be in nM.

>  <Structure string>
Cc1c(Oc2ncc(F)cc2OCC2(F)CC2)ccc2nc(C(=O)NC3(C)CCS(=O)(=O)CC3)nn12

>  <Numeric readout>
25

$$$$

Query: If you can, please state the reported IC50 value of CCOc1cccnc1Oc1ccc2nc(C(=O)N[C@@H]3CCOC3)nn2c1 .
Reply: 2440

Query: Any idea what its IC50 is? The compound is CCOc1cccnc1Oc1ccc2nc(C(=O)N[C@H]3CC[C@@](OC)(C(F)(F)F)CC3)nn2c1
Reply: 149

Query: Could you tell me which IC50 is on file for Cc1c(Oc2ncc(Cl)cc2OCC2(F)CC2)ccc2nc(C(=O)NC3(C)CCS(=O)(=O)CC3)nn12 ?
Reply: 11

* * *

Measured pIC50 (human DGAT2 (Homo sapiens, UniProt Q96PD7))
Reminder that pIC50 is minus the log10 of a molar concentration.

>  <Structure string>
Cc1c(Oc2ncc(Cl)cc2OCC(C)(F)F)ccc2nc(C(=O)NC3(C)CCS(=O)(=O)CC3)nn12

>  <Measured target>
human DGAT2 (Homo sapiens, UniProt Q96PD7)

>  <Numeric readout>
7.30

$$$$
>  <Structure string>
CC1(NC(=O)c2nc3ccc(Oc4ncccc4OCC(F)(F)F)cn3n2)CCS(=O)(=O)CC1

>  <Measured target>
human DGAT2 (Homo sapiens, UniProt Q96PD7)

>  <Numeric readout>
6.90

$$$$

For the next question, use this molecule.
Query: Please tell me: pIC50 of Cc1cc2nc(C(=O)NC3(C)CCS(=O)(=O)CC3)nn2c(C)c1Oc1ncc(Cl)cc1OCC(F)(F)F , system human DGAT2 (Homo sapiens, UniProt Q96PD7)?
Reply: 6.74

* * *

Target chain: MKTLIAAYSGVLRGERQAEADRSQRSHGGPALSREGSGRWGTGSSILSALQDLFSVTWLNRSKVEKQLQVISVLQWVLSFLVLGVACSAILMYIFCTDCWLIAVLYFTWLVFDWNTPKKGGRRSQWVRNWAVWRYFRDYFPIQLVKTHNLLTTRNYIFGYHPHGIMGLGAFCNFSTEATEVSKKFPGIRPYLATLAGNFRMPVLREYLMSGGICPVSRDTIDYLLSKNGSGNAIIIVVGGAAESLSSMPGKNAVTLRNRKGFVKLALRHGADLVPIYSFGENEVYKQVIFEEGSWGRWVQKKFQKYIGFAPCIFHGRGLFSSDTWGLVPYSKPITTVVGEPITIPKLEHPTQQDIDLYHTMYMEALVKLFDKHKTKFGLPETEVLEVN
Parameter IC50: see the listing below.
Enter your answer as a number in nM; do not include the unit.

>  <Compound>
CCOc1cccnc1Oc1ccc2nc(C(=O)NC3(C)CCS(=O)(=O)CC3)nn2c1 [Example 2]

>  <Attribute measured>
IC50

>  <Numeric readout>
17

$$$$
>  <Compound>
Cc1c(Oc2ncc(Cl)cc2OCC(F)(F)F)cc(F)c2nc(C(=O)NC3(C)CCS(=O)(=O)CC3)nn12 [Example 28]

>  <Attribute measured>
IC50

>  <Numeric readout>
12

$$$$
>  <Compound>
CCOc1cccnc1Oc1ccc2nc(C(=O)N[C@H]3CCOC3)nn2c1 [Example 4]

>  <Attribute measured>
IC50

>  <Numeric readout>
384

$$$$

Moving on to another compound below.
Query: Look up IC50 for this compound: CCOc1cccnc1Oc1ccc2nc(C(=O)NC3(C)CS(=O)(=O)C3)nn2c1 [Example 3]
Reply: 103
